Biological target: T1, mfNPR1-mFc (monkey)
T1 construct: also called dimeric monkey NPR1
T1 chain: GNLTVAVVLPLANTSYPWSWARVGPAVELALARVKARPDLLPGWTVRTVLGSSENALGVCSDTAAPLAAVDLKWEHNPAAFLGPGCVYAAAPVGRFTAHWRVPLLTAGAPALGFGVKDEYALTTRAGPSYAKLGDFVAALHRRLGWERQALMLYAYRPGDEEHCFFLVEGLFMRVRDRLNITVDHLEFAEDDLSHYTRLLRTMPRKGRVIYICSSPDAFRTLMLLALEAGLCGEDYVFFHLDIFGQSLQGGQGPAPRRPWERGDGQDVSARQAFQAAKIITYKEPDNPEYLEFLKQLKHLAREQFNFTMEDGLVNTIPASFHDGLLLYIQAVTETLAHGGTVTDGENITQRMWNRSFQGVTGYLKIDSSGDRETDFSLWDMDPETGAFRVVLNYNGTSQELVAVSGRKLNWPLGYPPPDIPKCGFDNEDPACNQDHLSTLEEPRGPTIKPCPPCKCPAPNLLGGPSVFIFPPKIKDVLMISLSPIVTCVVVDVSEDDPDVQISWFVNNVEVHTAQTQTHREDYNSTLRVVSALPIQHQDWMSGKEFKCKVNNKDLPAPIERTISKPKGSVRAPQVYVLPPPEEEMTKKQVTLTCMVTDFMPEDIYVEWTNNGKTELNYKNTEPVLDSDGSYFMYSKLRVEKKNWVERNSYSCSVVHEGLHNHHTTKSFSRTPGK
Test: SPR, mAb captured, 37C
Description: Equilibrium dissociation constant (KD) for different NPR1 reagents binding to purified anti-NPR1 monoclonal antibodies (mAbs) were determined using a real-time surface plasmon resonance based Biacore 4000 biosensor. All binding studies were performed in 10 mM HEPES, 150 mM NaCl, 3 mM EDTA, and 0.05% v/v Surfactant Tween-20, pH 7.4 (HBS-ET) running buffer at 25° C. and 37° C. […]
readout.label: log10(koff) (log10 of the value in s⁻¹)

# binder, log10(koff)
rows = [
    ("mAb25508 (antibody, human IgG4, V domains shown) VH: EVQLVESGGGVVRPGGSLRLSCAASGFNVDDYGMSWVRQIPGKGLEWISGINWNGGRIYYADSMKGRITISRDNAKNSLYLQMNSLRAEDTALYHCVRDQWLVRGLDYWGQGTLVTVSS VL: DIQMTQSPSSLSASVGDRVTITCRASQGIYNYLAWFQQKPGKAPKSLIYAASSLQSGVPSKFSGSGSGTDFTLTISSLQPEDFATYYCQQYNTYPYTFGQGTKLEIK", -4.08),
    ("mAb25479 (antibody, human IgG4, V domains shown) VH: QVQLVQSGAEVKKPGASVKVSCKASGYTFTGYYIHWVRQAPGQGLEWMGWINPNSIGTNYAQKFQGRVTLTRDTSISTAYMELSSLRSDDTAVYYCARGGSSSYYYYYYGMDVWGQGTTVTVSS VL: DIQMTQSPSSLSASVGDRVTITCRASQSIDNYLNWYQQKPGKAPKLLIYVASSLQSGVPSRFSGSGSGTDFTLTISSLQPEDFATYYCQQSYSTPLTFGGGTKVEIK", -2.97),
    ("mAb22033 (antibody, human IgG4, V domains shown) VH: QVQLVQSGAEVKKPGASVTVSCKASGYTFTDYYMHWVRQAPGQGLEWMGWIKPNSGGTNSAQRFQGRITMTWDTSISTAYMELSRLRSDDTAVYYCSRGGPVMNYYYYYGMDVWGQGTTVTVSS VL: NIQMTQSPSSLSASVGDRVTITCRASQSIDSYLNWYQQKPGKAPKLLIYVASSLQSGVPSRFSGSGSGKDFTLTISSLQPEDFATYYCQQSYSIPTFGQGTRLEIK", -4.00),
    ("mAb25491 (antibody, human IgG4, V domains shown) VH: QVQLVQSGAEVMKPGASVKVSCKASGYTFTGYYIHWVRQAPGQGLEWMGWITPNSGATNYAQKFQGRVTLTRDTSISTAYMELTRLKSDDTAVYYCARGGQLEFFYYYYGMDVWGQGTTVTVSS VL: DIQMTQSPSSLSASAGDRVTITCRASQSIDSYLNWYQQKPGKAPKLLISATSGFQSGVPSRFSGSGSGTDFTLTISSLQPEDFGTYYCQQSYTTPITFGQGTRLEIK", -3.79),
    ("mAb22035 (antibody, human IgG4, V domains shown) VH: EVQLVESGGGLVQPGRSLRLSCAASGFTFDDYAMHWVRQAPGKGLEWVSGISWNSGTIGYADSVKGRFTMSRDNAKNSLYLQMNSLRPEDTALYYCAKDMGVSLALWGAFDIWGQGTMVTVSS VL: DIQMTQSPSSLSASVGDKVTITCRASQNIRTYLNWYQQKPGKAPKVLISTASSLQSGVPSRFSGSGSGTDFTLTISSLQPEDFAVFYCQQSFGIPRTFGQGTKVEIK", -4.07),
    ("mAb25497 (antibody, human IgG4, V domains shown) VH: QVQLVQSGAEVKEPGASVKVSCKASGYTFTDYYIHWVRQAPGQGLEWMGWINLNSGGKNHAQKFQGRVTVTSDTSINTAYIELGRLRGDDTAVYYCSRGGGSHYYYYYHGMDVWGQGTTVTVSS VL: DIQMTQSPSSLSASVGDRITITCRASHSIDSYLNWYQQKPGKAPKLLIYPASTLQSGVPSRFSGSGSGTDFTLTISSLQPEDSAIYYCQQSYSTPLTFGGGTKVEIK", -3.66),
]
